- system_name: ACAT1 C126 (P24752) (Homo sapiens, UniProt P24752)
- Sequence (P24752 34-427): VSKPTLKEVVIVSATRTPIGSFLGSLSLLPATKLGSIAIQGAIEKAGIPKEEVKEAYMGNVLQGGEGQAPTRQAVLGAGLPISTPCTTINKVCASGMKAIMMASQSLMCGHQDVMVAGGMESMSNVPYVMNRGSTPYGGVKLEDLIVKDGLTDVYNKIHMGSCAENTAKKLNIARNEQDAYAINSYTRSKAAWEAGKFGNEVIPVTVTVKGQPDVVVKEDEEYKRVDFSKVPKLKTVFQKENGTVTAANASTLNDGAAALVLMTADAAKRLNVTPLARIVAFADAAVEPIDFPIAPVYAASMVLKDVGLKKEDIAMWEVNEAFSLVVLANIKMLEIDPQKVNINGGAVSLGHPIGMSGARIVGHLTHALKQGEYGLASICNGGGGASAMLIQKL
- protocol_details: Competitive isoTOP-ABPP, cell lysates
- Assay type: binding
- condition_parameters: 500 μm, in-vitro_ramos_231
readout: isoTOP-ABPP reactivity profile ratio, P24752_C126

compound=O=C(CCl)N1CCc2cc(Br)ccc21 obs_value=20.0
compound=CCCN(C(=O)CCl)c1c(N)n(CCC)c(=O)[nH]c1=O obs_value=0.9
compound=C=CC(=O)N(c1ccccc1)C1CCCCC1 obs_value=0.9
compound=Cc1ncc(CO)c(CNC(=O)CCl)c1O obs_value=1.1
compound="O=C(CCl)NC1C(O)OC(CO)C(O)C1O (mixture of isomers)" obs_value=0.8
compound=O=C(CCl)Nc1cccc2ncccc12 obs_value=1.0
compound="CC1CCc2ccccc2N1C(=O)CCl (stereo not drawn)" obs_value=20.0
compound=O=C(CCl)Nc1ccc(-c2ccccc2)cc1 obs_value=1.3
compound=Cc1ccc(C(F)(F)F)cc1NC(=O)CCl obs_value=20.0
